The measurements presented in this section are drawn from patent US6914045B2.

system: Staphylococcus sp.; test: in vitro antibacterial evaluation, MIC by broth dilution; type: cell-based; conditions: broth dilution, 18 hours at 35° C.
MIC Coagulase Negative Staphylococcus (GC 6257): recorded values
State the answer as a number, implicitly in µg/mL.

// below: answered compounds
CCOc1cc(COCC2OC(OC3C(CO)OC(Oc4ccc(CC5NC(=O)C(C(C)c6ccccc6)NC(=O)CNC(=O)C(CO)NC(=O)C(C(O)C6CNC(=N)N6C6OC(CO)C(O)C(O)C6O)NC(=O)C(C(O)C6CNC(=N)N6)NC5=O)cc4)C(O)C3O)C(O)C(O)C2O)ccc1OC (stereo not shown) [Example 238]    1
CC(c1ccccc1)C1NC(=O)CNC(=O)C(CO)NC(=O)C(C(O)C2CNC(=N)N2C2OC(CO)C(O)C(O)C2O)NC(=O)C(C(O)C2CNC(=N)N2)NC(=O)C(Cc2ccc(OC3OC(CO)C(OC4OC5COC(C6CC=CCC6)OC5C(O)C4O)C(O)C3O)cc2)NC1=O (stereo not shown) [Example 115]    0.5

Shift focus to the following entry.
Query: Given the entry CC(c1ccccc1)C1NC(=O)CNC(=O)C(CO)NC(=O)C(C(O)C2CNC(=N)N2C2OC(CO)C(O)C(O)C2O)NC(=O)C(C(O)C2CNC(=N)N2)NC(=O)C(Cc2ccc(OC3OC(CO)C(OC4OC(CO)C(OCc5ccc(OCc6ccccc6)cc5)C(O)C4O)C(O)C3O)cc2)NC1=O (stereo not shown) [Example 231a] , report its measured MIC Coagulase Negative Staphylococcus (GC 6257).
Result: 0.5
